Where these numbers come from: patent US20210087281A1

- system.under.test: T1, native human MET on living cells (human, UniProt P08581 25-1390)
- T1 construct: whole, on cells; also called Human cells (A549); HPAF-II
- procedure.text: flow cytometry, A549 cells
- Procedure: We also analysed whether chimeric anti-MET antibodies bound to native human and mouse MET in living cells. […] Antibody binding to cells was analysed by flow cytometry using phycoerythrin-conjugated anti-human IgG1 antibodies (eBioscience) and a CyAn ADP analyser (Beckman Coulter). As a positive control for human MET binding, we used a commercial mouse anti-human MET antibody (R&D Systems) and phycoerythrin-conjugated anti-mouse IgG1 antibodies (eBioscience). […]
readout.label: EC50 (nM)
Numbers only here, please. The scale is nM.

The reported EC50 of the binder 71A3 chimeric llama-human IgG1 mAb (antibody, V domains shown, llama VH on human IgG1 CH1-CH2-CH3, llama VL on human lambda CL) VH: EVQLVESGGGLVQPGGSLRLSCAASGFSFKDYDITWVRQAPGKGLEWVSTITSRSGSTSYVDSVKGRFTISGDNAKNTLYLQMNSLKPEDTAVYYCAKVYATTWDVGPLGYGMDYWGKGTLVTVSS VL: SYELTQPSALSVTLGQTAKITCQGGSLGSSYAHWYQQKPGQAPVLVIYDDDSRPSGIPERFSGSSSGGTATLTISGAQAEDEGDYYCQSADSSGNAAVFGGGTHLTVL was 0.514

For 72F8 chimeric llama-human IgG1 mAb (antibody, V domains shown, llama VH on human IgG1 CH1-CH2-CH3, llama VL on human lambda CL) VH: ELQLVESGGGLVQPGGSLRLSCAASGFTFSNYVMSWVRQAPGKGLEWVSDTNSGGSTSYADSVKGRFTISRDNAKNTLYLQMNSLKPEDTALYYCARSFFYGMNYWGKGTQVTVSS VL: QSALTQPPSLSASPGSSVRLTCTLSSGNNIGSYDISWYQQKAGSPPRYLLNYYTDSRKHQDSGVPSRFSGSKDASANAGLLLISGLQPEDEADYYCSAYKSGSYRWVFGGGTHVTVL the binder record lists EC50 as 0.371

Record 71G3 chimeric llama-human IgG1 mAb (antibody, V domains shown, llama VH on human IgG1 CH1-CH2-CH3, llama VL on human lambda CL) VH: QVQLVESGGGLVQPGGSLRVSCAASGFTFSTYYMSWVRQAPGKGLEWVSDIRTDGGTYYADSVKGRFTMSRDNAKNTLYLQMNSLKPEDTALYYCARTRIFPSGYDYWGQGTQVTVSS VL: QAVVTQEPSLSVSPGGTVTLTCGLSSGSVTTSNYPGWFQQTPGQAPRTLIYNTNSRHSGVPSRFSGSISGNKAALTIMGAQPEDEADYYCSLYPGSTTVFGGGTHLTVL , field EC50: 0.296
